- TARGET: T1, human prostate specific membrane antigen (PSMA), full-length, on cells (human, UniProt Q04609 1-750)
- T1 construct: also called huPSMA; human PSMA
- T1 sequence (Q04609 whole entry): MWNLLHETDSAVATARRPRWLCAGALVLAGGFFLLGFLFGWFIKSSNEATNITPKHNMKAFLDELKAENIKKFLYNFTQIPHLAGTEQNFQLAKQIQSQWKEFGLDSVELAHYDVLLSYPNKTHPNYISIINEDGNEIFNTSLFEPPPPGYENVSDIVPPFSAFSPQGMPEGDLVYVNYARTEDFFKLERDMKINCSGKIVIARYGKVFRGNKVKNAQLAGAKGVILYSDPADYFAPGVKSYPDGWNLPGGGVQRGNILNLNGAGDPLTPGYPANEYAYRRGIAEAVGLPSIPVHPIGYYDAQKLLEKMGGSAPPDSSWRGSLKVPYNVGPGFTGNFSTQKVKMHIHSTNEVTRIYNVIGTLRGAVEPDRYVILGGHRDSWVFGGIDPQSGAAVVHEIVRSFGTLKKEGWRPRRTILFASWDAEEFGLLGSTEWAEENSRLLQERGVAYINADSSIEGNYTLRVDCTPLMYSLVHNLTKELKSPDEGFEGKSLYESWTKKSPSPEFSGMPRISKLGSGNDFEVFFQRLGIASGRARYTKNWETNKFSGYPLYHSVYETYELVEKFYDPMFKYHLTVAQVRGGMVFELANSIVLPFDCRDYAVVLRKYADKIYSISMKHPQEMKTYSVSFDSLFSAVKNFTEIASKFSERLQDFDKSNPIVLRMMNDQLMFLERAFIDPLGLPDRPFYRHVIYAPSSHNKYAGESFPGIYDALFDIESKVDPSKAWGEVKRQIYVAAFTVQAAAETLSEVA
- PROTOCOL TEXT: FMAT cell binding, huPSMA CHO cells, after 1 day in human serum at 37 C
MEASURED ATTRIBUTE: EC50 (nM)
Reply with just the number (in nM).

**Q:** Fill blank: measured EC50 of the binder 1.11-6GS-2.17 (bispecific antibody, linker (G4S)6) EVQLLESGGGLVQPGGSLRLSCAASGFSFSSYALSWVRQAPGKGLEWVSSIGENNDTTDYADNVKGRFTISRDNSKNTLYLQMNSLRVEDTAVYYCVKDGVHWGQGTLVTVSSGGGGSGGGGSGGGGSGGGGSGGGGSGGGGSEVQLVESGGGVVQPGRSLRLSCAASGFSFSGYGMHWVRQAPGKGLEWVAYISYDASNKYYADNVKGRFTISRDNSKNTLYLQMNSLRAEDTAVYYCAKDPAWGLRLGESSSYDFDIWGQGTMVTVSS is ____.
**A:** 0.0725

**Q:** Which EC50 is listed for 1.11-6GS-2.1 (bispecific antibody, linker (G4S)6; also called 1.11-2.1) EVQLLESGGGLVQPGGSLRLSCAASGFSFSSYALSWVRQAPGKGLEWVSSIGENNDTTDYADNVKGRFTISRDNSKNTLYLQMNSLRVEDTAVYYCVKDGVHWGQGTLVTVSSGGGGSGGGGSGGGGSGGGGSGGGGSGGGGSEVQLVESGGGVVQPGRSLRLSCAASGFSFSGYGMHWVRQAPGKGLEWVAYISYDGSNKYYADSVKGRFTISRDNSKNTLYLQMNSLRAEDTAVYYCAKDPAWGLRLGESSSYDFDIWGQGTMVTVSS ?
**A:** 0.0605

**Q:** Need EC50, item 1.16-6GS-2.17 (bispecific antibody, linker (G4S)6) EVQLLESGGGLVQPGGSLRLSCAASGFSFSSYALSWVRQAPGKGLEWVSSIGENNHTTDYADTVKGRFTISRDNSKNTLYLQMNSLRVEDTAVYYCVKDGVHWGQGTLVTVSSGGGGSGGGGSGGGGSGGGGSGGGGSGGGGSEVQLVESGGGVVQPGRSLRLSCAASGFSFSGYGMHWVRQAPGKGLEWVAYISYDASNKYYADNVKGRFTISRDNSKNTLYLQMNSLRAEDTAVYYCAKDPAWGLRLGESSSYDFDIWGQGTMVTVSS
**A:** 0.0944

**Q:** Please report the recorded EC50 for 1.16-6GS-2.1 (bispecific antibody, linker (G4S)6) EVQLLESGGGLVQPGGSLRLSCAASGFSFSSYALSWVRQAPGKGLEWVSSIGENNHTTDYADTVKGRFTISRDNSKNTLYLQMNSLRVEDTAVYYCVKDGVHWGQGTLVTVSSGGGGSGGGGSGGGGSGGGGSGGGGSGGGGSEVQLVESGGGVVQPGRSLRLSCAASGFSFSGYGMHWVRQAPGKGLEWVAYISYDGSNKYYADSVKGRFTISRDNSKNTLYLQMNSLRAEDTAVYYCAKDPAWGLRLGESSSYDFDIWGQGTMVTVSS .
**A:** 0.086
